- Target or system: legumain (Homo sapiens)
- Construct: purchased R&D Systems 2199-CY
- Sequence (Q99538 26-323 limits assumed): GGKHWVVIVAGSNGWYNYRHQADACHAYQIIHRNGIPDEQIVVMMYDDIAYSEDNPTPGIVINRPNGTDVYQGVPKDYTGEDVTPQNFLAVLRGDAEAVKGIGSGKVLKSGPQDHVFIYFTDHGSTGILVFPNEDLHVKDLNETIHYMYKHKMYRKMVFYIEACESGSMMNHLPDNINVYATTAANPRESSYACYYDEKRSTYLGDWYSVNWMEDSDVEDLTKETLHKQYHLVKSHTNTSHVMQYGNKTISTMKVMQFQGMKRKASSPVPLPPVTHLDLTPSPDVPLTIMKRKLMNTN
- Assay info: Legumain assay
- Assay type: biochemical
- Measurement setup: recombinant human legumain (rhlegumain), 3 μM substrate, pH 5.0, read-out: half-life of legumain-mediated cleavage (converted)
Measurement kind: half-life at 3 µM (min)
Write the number in min without appending the unit.

Q: Could you share which half-life at 3 µM value was measured for CNC(=O)[C@H](CCN(C(=O)CO)[C@@H](c1cc(-c2cc(F)ccc2F)cn1Cc1ccccc1)C(C)(C)C)NC(=O)[C@H](CC(N)=O)NC(=O)[C@H](C)N(C)C(=O)[C@H](C)NC(=O)Cc1ccncc1 [Model Compound A] ?
Ans: 30
